Each recorded value in this set is attributed to BindingDB's records for PubMed 8391122.

Biological target: Gamma-aminobutyric acid receptor subunit alpha-3 (Homo sapiens, UniProt P34903)
Sequence (P34903 whole entry): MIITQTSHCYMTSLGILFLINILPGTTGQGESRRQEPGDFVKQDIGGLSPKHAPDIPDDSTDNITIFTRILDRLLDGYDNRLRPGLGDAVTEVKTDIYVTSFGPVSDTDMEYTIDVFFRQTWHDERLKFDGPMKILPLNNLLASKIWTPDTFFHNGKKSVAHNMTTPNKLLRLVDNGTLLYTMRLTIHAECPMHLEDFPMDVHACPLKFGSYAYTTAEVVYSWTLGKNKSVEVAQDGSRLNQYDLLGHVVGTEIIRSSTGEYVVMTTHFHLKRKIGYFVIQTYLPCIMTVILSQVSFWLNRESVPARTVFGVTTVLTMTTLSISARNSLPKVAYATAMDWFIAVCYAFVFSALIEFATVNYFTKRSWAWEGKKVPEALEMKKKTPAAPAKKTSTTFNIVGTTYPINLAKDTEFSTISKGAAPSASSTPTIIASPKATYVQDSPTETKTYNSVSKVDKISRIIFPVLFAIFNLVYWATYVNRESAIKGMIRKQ
Reported Property: Ki

Compound	Ki
Cc1nnc2ccc(-c3cccc(C(F)(F)F)c3)nn12	3140 nM

IN: Quick one: Ki for CCOC(=O)c1ncn2c1CN(C)C(=O)c1cc(N=[N+]=[N-])ccc1-2 [RO-154513] ?
OUT: 7.8 nM

IN: Now this one: `COC(=O)c1cc2c(cn1)[nH]c1ccccc12`
OUT: 9.2 nM

IN: Now this one: CC(C)(C)OC(=O)c1ncn2c1C1CCCN1C(=O)c1c(Br)cccc1-2 (configuration not stated)
OUT: 1.3 nM

IN: Now this one: Cc1nnc2n1-c1ccc(Cl)cc1C(c1ccccc1Cl)=NC2 [Halcion]
OUT: 3 nM

IN: Now this one: CC(C)c1nc(-c2ncn3c2CN(C)C(=O)c2c(Cl)cccc2-3)no1 [FG 8205]
OUT: 6.4 nM

IN: Now this one: `COCc1c(C(=O)OC(C)C)ncc2[nH]c3ccc(OCc4ccccc4)cc3c12`
OUT: 7.1 nM
